experiment: NCI Yeast Anticancer Drug Screen. Data for the bub3 strain (AID 167); settings: S. cerevisiae bub3 mutant strain, at 50.0 µM (retest, dose inferred, filed as 5.0)
The panel holds about 79,000 compounds, 15% with a hit somewhere; the sample as a whole holds those more often. The source made the active and inactive calls. No stated cut-off is given here; in the data, active means growth inhibition above about 70%; inactive means the rest.
# output must be one of active, inactive

// return assay outcome for `Cn1c2nc(-[n+]3ccc4ccccc4c3)nc-2c([O-])n(C)c1=O`
active

// return assay outcome for `O=C(O)c1ccccc1SC(Sc1ccccc1C(=O)O)c1cccc(Cl)c1`
active

// return assay outcome for COc1cc2c(c(OC)c1OC)-c1ccc(O)c(=O)cc1C(N=Cc1ccccc1)CC2 (centres undefined)
inactive

// return assay outcome for `CC(=O)N=C1N(/C=C2\C(=O)Oc3ccccc3C2=O)C(=O)/C(=C/c2ccc(Cl)cc2Cl)N1C`
active

// return assay outcome for CCC(CO)Nc1nc2cc(Cl)ccc2c2ccc(Cl)cc12 (centres undefined)
active

// return assay outcome for `CCn1c2ccccc2c2ccc(N=Nc3ccc(N(C)C)cc3)cc21`
active

// return assay outcome for CCOC(=O)C1CCC(=O)O1 (centres undefined)
active

// return assay outcome for `CCCCCCCCCCCCCCSC(=NCC)NCC`
active

// return assay outcome for `Cc1ccc(C)c([N+](=O)[O-])c1`
inactive

// return assay outcome for `CCC(CC)COC(=O)c1cccnc1`
active

// return assay outcome for `Nc1cc(Cl)ccc1C(=O)O`
inactive

// return assay outcome for COc1cc(C2c3cc4c(cc3OC3(O)C=C(C)OC(=O)C23)OCO4)cc(OC)c1OC (centres undefined)
inactive

// return assay outcome for `Oc1ccc(Br)cc1-c1nc2cc(Cl)c(Cl)cc2nc1-c1cc(Br)ccc1O`
active

// return assay outcome for CCC(C)(C)c1ccc(OC(=O)C(C)OC(C)=O)cc1 (centres undefined)
inactive

// return assay outcome for `O=C(NCCNCCNCCNC(=O)c1cc(-c2ccccc2)nc2ccccc12)c1cc(-c2ccccc2)nc2ccccc12`
active

// return assay outcome for N#CC(C(=O)CCc1nc2ccccc2[nH]1)c1c(Cl)cccc1Cl (centres undefined)
inactive

// return assay outcome for `COc1ccc2c(c1)C(=O)C[C@@H]1[C@](C)(C#N)CCC[C@]21C`
inactive

// return assay outcome for CC(C)(C)OC(=O)NCCNC(=O)CN(CC(=O)O)C1CCCCC1N(CC(=O)O)CC(=O)O (centres undefined)
active

// return assay outcome for `CC(=O)OC[C@@H](OC(C)=O)[C@H](OC(C)=O)c1cnn(-c2ccccc2)n1`
inactive

// return assay outcome for CCC[CH2][Sn]([CH2]CCC)([O]C(=O)C1CCC(=O)N1)[O]C(=O)C1CCC(=O)N1 (centres undefined)
active

// return assay outcome for `ON=C1Cc2ccccc2-c2ccccc2C1`
inactive

// return assay outcome for `ClC1=C(Cl)C(Cl)=C(Cl)C1`
active

// return assay outcome for COC(=O)N/N=C(\C)C(CN1CCOCC1)C(c1ccccc1)c1cc2ccccc2oc1=O (centres undefined)
active

// return assay outcome for CCCCCC(C)NCCOC(=O)c1ccccc1 (centres undefined)
active

// return assay outcome for CC1(C)CC[C@]2(C(=O)O)[C@H](O)C[C@]3(C)C(=CC[C@@H]4[C@@]5(C)CC[C@H](OC6OCC(O)C(O)C6OC6OCC(O)C(O)C6OC6OCC(O)C(O)C6O)C(C)(C)[C@@H]5CC[C@]43C)[C@@H]2C1 (some centres undefined)
active

// return assay outcome for `O=C1C(=O)C(Cl)=C(Cl)C(Cl)=C1Cl`
active

// return assay outcome for `Cc1ccc2nc(C[n+]3cccc4ccccc43)ccc2c1`
active

// return assay outcome for `C1=c2ccccc2=C2C(=C(c3ccccc3)C(c3ccccc3)=NN2c2ccccc2)S1`
inactive

// return assay outcome for `Oc1c(Cl)cccc1-c1ccccc1`
inactive
